Target: Estrogen receptor (Homo sapiens) (UniProt P03372)
Sequence (P03372 whole entry, looked up): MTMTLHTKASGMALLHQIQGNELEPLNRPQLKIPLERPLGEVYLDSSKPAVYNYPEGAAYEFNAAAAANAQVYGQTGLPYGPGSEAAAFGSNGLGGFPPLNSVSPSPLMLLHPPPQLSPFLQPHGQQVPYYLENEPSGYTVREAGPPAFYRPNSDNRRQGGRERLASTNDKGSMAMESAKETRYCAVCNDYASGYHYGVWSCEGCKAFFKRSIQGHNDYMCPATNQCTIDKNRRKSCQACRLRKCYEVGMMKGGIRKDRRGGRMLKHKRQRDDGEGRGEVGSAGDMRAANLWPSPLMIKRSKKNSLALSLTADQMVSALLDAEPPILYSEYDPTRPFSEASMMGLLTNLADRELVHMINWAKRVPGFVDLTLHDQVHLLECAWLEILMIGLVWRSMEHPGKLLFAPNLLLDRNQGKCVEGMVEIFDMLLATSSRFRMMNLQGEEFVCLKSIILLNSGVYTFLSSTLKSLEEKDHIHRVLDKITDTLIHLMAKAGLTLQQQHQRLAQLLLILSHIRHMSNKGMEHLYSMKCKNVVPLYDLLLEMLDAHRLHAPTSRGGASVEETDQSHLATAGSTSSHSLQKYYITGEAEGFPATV
Experiment: OT_ERa_GFPERaERE_0480: Odyssey Thera (OT) 8-hour HeLa Transcription Induction Assay for Estrogen Receptor (AID 2283381)
The source made the active and inactive calls. How the source made its calls: active means hit-call score of the fitted dose curve at least 0.9, where 1 is the maximum; inactive means score below 0.9.
The reply should be one of these categories: active, inactive

input: Would you mind telling me which call this test gave `C=CC(=O)NC(C)(C)CS(=O)(=O)O` ?
output: inactive

input: Can you look up the reported call for `CC(C)(C)c1ccc(OC(=O)c2ccccc2O)cc1` for me?
output: inactive

input: Lab log entry: `CC(C)(C)c1ccc(-c2ccc(C(C)(C)C)cc2)cc1` — outcome as called in the assay?
output: inactive

input: Would you mind telling me which call this test gave `CCOC(=O)Cc1cccc2ccccc12` ?
output: inactive

input: Called result for `CCCCCCCCCCOS(=O)(=O)O`
output: inactive

input: Would you mind telling me which call this test gave `CC(C)c1ccc2c(C(C)C)cc(C(C)C)c(S(=O)(=O)O)c2c1` ?
output: inactive

input: Per the records of this test, what outcome belongs to `CCCCCCCCCCCCCOP(=O)(O)O` ?
output: inactive

input: Recorded call for `CCCc1ccc(OC)cc1` ?
output: inactive

input: Could you kindly confirm the outcome this assay logged for `CCCCOCCOC(=O)COc1nc(Cl)c(Cl)cc1Cl` ?
output: inactive

input: Could you please tell me the result logged for `CCCCCCCC/C=C\CCCCCCCC(=O)OCCO` in this assay?
output: inactive

input: Recorded test outcome, item `CC(=O)[C@H]1[C@H](C#N)C[C@H]2[C@@H]3CC=C4C[C@@H](O)CC[C@]4(C)[C@H]3CC[C@@]21C`
output: inactive

input: For this compound, state the assay outcome: `C1=Cc2ccccc2C1`
output: inactive

input: In this assay, the call recorded for `CCOC(=O)CC` was what?
output: inactive

input: Short answer needed: outcome of this test for `C1CN(SSN2CCOCC2)CCO1` ?
output: inactive

input: Which result was noted for this compound in the test: `CC(C)(C)c1ccc(N)cc1`
output: inactive

input: // outcome(item) with item = CCCCCCC1(C)CCC(=O)O1 (configuration not stated)
output: inactive

input: What did this assay record as the result for `Cc1cc(C)c(C)cc1C` ?
output: inactive

input: Outcome? `CNC(=S)NN`
output: inactive

input: In this assay, the call recorded for `CCCCC/C=C\C/C=C\CCCCCCCC(=O)OC` was what?
output: inactive

input: Name the outcome recorded for CCCCC(CC)CCC(CC(C)C)OS(=O)(=O)O (configuration not stated) in the assay.
output: inactive

input: Name the outcome recorded for `CCCCCCCC[N+](C)(CCCCCCCC)CCCCCCCC` in the assay.
output: inactive

input: Outcome? C=C1C2CCC(C2)C1(C)C (configuration not stated)
output: inactive

input: Recorded test outcome, item `CN(C)c1ccc(C(=N)c2ccc(N(C)C)cc2)cc1`
output: inactive

input: Check the results log: what was the call for `Cc1ccc(C(C)(C)C)cc1` ?
output: inactive

input: What call does the record list for `O=C(c1ccccc1)C1CCC1` ?
output: inactive

input: Entry `NC(CO)(CO)CO` : call = ?
output: inactive

input: Field: outcome | Entry: `COC(=O)c1c(C)cc(O)c(C)c1O`
output: inactive

input: I would be grateful if you could indicate the recorded call for `CC/C=C\C/C=C\C/C=C\CCCCCCCC(=O)O` .
output: inactive

input: Tell me the assay call for `c1ccc2c(c1)ccc1cc3c(ccc4ccccc43)cc12` please.
output: inactive

input: What outcome does the record of this test show for CC(CC=O)CCCC(C)(C)O (configuration not stated) ?
output: inactive

input: What outcome does the record of this test show for `c1c[nH]cn1` ?
output: inactive

input: Tell me the assay call for `O=C1CCCC1` please.
output: active
